Overview of reported pIC50 across a group of compounds:
molecular target: β5 subunit of the human immunoproteasome (IPS) (Homo sapiens); assay: β5 inhibition assay, human immunoproteasome (Suc-LLVY-AMC); settings: IC50 class, Suc-LLVY-AMC substrate
pIC50: −log10 of the molar value.

Some compounds with known pIC50 results, for comparison:
INSERT INTO results (compound, endpoint_value) VALUES
  ('Cc1ccc2cc1CNC(=O)[C@H](CCc1ccccc1)NC(=O)[C@@H](NC1CC3C=CC1C3)CC(=O)N1CCCC(CCO2)C1 (some centres unmarked)', '> 7.00'),
  ('Cc1ccc2cc1CNC(=O)[C@H](CCc1ccccc1)NC(=O)[C@@H](NC(=O)OCc1ccccc1)CCCC(=O)N1CCCC3(CC(C3)O2)C1', '> 7.00'),
  ('Cc1ccc2cc1CNC(=O)[C@H](CCc1ccccc1)NC(=O)[C@@H](NC(=O)C(C)(C)C(F)(F)F)CC(=O)N1CCCC(CCO2)C1 (some centres unmarked)', '> 7.00'),
  ('CC(=O)N[C@H]1CC(=O)N(C)CCCCOc2ccc(C)c(c2)CNC(=O)[C@H](CCc2ccccc2)NC1=O', '6.30 to 7.00');

# context switch: different compound, same pIC50
Data request, read-out pIC50, for CCOC(C(=O)N[C@H]1CC(=O)N2CCCC(CCOc3ccc(C)c(c3)CNC(=O)[C@H](CCc3ccccc3)NC1=O)C2)c1ccc(NC(C)=O)cc1 (some centres unmarked)
> 7.00
